B1: TPR t1 (parent)
chain: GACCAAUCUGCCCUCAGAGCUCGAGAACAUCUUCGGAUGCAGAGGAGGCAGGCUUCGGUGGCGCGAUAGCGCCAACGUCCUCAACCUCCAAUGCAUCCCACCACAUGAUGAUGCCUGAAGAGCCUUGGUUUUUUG

variants of: B1; experiment: polymerase ribozyme fitness, log enrichment relative to wild type (log ratio); higher = more active; in vitro selection for triplet polymerase activity
So basically: polymerase ribozyme fitness (log ratio) at -2 or higher? That is criterion met. Lower than -2? That is criterion not met.

mutation annotation	class name
C40U C62U A95G	criterion met
G10C C12G C72A A105U	criterion not met
C72U U133C	criterion met
C73A G93C	criterion met
C13G A74G C79U	criterion met
U33G G93A A100U C114U	criterion not met
C8A G48U C53A C82U U106A A108G	criterion met
C3A U9G G44A C62A C88G G113A C123G	criterion not met
C28U C56G C73A	criterion not met
A24C G39C C114U G120C	criterion not met
G42A G45U C101A	criterion not met
